system: Caco-2; test: Cytotoxicity against human Caco2 cells assessed as reduction in cell viability incubated fpr 72 hrs by celltiter-glo luminescent cell viability assay; type: functional, cell-based; conditions: Caco-2, 72 h
pIC50: −log10 of the molar value.
Listed here: items and their measured pIC50.

smi=O=C1C=CC[C@@H]([C@H](O)[C@H](O[C@@H](c2ccccc2)[C@@H](O)[C@@H]2CC=CC(=O)O2)c2ccccc2)O1 measurementname=pIC50 result="< 5.00"
smi=O=C1C=CC[C@@H]([C@H](O)[C@@H](O[C@H]([C@@H]2CC=CC(=O)O2)[C@@H](O)c2ccccc2)c2ccccc2)O1 measurementname=pIC50 result="< 5.00"
smi=CC(=O)O[C@@H](c1ccccc1)[C@@H](O[C@@H]1[C@@H]2C[C@@H](CC(=O)O2)O[C@H]1c1ccccc1)[C@@H]1CC=CC(=O)O1 measurementname=pIC50 result="< 5.00"

We next turn to a different compound, shown below.
Provide the documented pIC50 with Caco-2 as the system for "CC(=O)O[C@@H]([C@@H]1CC=CC(=O)O1)[C@H](O[C@@H](c1ccccc1)[C@@H](O)[C@@H]1CC=CC(=O)O1)c1ccccc1" 5.15

---

Listed here: items and their measured IC50.
tested on: Calu-1; test: Cytotoxicity against human Calu1 cells assessed as reduction in cell viability incubated fpr 72 hrs by celltiter-glo luminescent cell viability assay; assay type: functional, cell-based; settings: Calu-1, 72 h
State the answer as a number, implicitly in µM.

Item "O=C1C=CC[C@@H]([C@H](O)[C@@H](O[C@H]([C@@H]2CC=CC(=O)O2)[C@@H](O)c2ccccc2)c2ccccc2)O1" has what recorded IC50? 7.5

Item "CC(=O)O[C@@H]([C@@H]1CC=CC(=O)O1)[C@H](O[C@@H](c1ccccc1)[C@@H](O)[C@@H]1CC=CC(=O)O1)c1ccccc1" has what recorded IC50? 2.2

Item "O=C1C=CC[C@@H]([C@H](O)[C@H](O[C@@H](c2ccccc2)[C@@H](O)[C@@H]2CC=CC(=O)O2)c2ccccc2)O1" has what recorded IC50? 5.4

---

system: NCI-H23; assay: Cytotoxicity against human NCI-H23 cells assessed as reduction in cell viability incubated fpr 72 hrs by celltiter-glo luminescent cell viability assay; format: functional, cell-based; settings: NCI-H23, 72 h
measurementName: pIC50
Lab note: report pIC50 as minus log10 of the concentration in molar units, number only.

Illustrative cases are given below, each with its answer.
smi=CC(=O)O[C@@H]([C@@H]1CC=CC(=O)O1)[C@H](O[C@@H](c1ccccc1)[C@@H](O)[C@@H]1CC=CC(=O)O1)c1ccccc1 systemtested=NCI-H23 resultnumber=5.59
smi=O=C1C=CC[C@@H]([C@H](O)[C@H](O[C@@H](c2ccccc2)[C@@H](O)[C@@H]2CC=CC(=O)O2)c2ccccc2)O1 systemtested=NCI-H23 resultnumber=5.49
smi=O=C1C=CC[C@@H]([C@H](O)[C@@H](O[C@H]([C@@H]2CC=CC(=O)O2)[C@@H](O)c2ccccc2)c2ccccc2)O1 systemtested=NCI-H23 resultnumber=5.28

We next turn to a different compound, shown below.
Provide the documented pIC50 with NCI-H23 as the system for "CC(=O)O[C@@H](c1ccccc1)[C@@H](O[C@@H]1[C@@H]2C[C@@H](CC(=O)O2)O[C@H]1c1ccccc1)[C@@H]1CC=CC(=O)O1" 5.03

---

tested on: HCC 2998; experiment: Cytotoxicity against human HCC2998 cells assessed as reduction in cell viability incubated fpr 72 hrs by celltiter-glo luminescent cell viability assay; format: functional, cell-based; conditions: HCC 2998, 72 h
pIC50: −log10 of the molar value.
measurementName: pIC50

Illustrative cases are given below, each with its answer.
smi=O=C1C=CC[C@@H]([C@H](O)[C@@H](O[C@H]([C@@H]2CC=CC(=O)O2)[C@@H](O)c2ccccc2)c2ccccc2)O1 result="< 5.00"
smi=CC(=O)O[C@@H](c1ccccc1)[C@@H](O[C@@H]1[C@@H]2C[C@@H](CC(=O)O2)O[C@H]1c1ccccc1)[C@@H]1CC=CC(=O)O1 result="< 5.00"

Provide the documented pIC50 with HCC 2998 as the system for "O=C1C=CC[C@@H]([C@H](O)[C@H](O[C@@H](c2ccccc2)[C@@H](O)[C@@H]2CC=CC(=O)O2)c2ccccc2)O1" 5.54

Provide the documented pIC50 with HCC 2998 as the system for "CC(=O)O[C@@H]([C@@H]1CC=CC(=O)O1)[C@H](O[C@@H](c1ccccc1)[C@@H](O)[C@@H]1CC=CC(=O)O1)c1ccccc1" < 5.00
